Test system: Vero E6 infected with SARS-CoV-2
test method notes: inhibition of SARS-CoV-2 cytopathic effect; higher = more antiviral protection, active = above 15
condition context: 833.33 nM; 48 h
property label: inhibition of SARS-CoV-2 cytopathic effect (%)
The reply should be a number in %, with the unit left off.

{"compound": "CC(C(=O)O)c1ccc(N2Cc3ccccc3C2=O)cc1 (configuration not stated) [indoprofen]", "measured value": 1.21}
{"compound": "Cc1cc(O)c(C(=O)N[C@@H](C(=O)N[C@@H]2C(=O)N3C(C(=O)O)=C(CSc4nnnn4C)CS[C@H]23)c2ccc(O)cc2)cn1 [cefpiramide]", "measured value": 2.35}
{"compound": "Fc1cc(F)c2c(c1)[C@H]1C=CC[C@H]1C(c1cccnc1)N2 (some centres not stated) [Golgicide A]", "measured value": -0.71}

Shift focus to the following entry.
Challenge: Output reported inhibition of SARS-CoV-2 cytopathic effect of the compound CN(C)CCCSc1ccccc1NC(=O)/C=C/c1ccccc1 [cinanserin] on Vero E6 infected with SARS-CoV-2.
Response given: -4.69

###

Tested on: Vero E6 infected with SARS-CoV-2
test method notes: SARS-CoV-2 infection rate relative to infected DMSO; higher = more infection, active = 60 or less
condition context: 24 h
property label: SARS-CoV-2 infection rate (%)
Write the value in % as a bare number.

Example compounds with recorded SARS-CoV-2 infection rate:
{"compound": "C[C@H]1C[C@H]2[C@@H]3CCC4=CC(=O)C=C[C@]4(C)[C@@]3(Cl)[C@@H](O)C[C@]2(C)[C@@]1(O)C(=O)CO [beclomethasone] (10 µM)", "readout units": "%", "SARS-CoV-2 infection rate": 89.5}
{"compound": "CC(=O)[C@H]1CC[C@H]2[C@@H]3CC[C@H]4C[C@H](O)CC[C@]4(C)[C@H]3CC[C@]12C [allopregnanolone] (10 µM)", "readout units": "%", "SARS-CoV-2 infection rate": 103}
{"compound": "CCN(CC)CCCCNc1ncc2cc(-c3cc(OC)cc(OC)c3)c(NC(=O)NC(C)(C)C)nc2n1 (0.833333 µM)", "readout units": "%", "SARS-CoV-2 infection rate": 107}

Challenge: Fetch value of SARS-CoV-2 infection rate on Vero E6 infected with SARS-CoV-2 for O=c1cc(-c2ccccc2)oc2cc(O)c(O)c(O)c12 [baicalein] (10 µM) .
Response given: 85

###

Test system: Vero E6 infected with SARS-CoV-2
test method notes: inhibition of SARS-CoV-2 cytopathic effect; higher = more antiviral protection, active = above 15
condition context: 10000 nM; 48 h
Lab note: assign the record to one of active, inactive

Example entries begin here.
{"molecule": "Cn1cc(C(=O)c2cccc3ccccc23)cc1C(=O)O [napirimus]", "assigned class": "inactive"}
{"molecule": "O=C1OCCN1/N=C/c1ccc([N+](=O)[O-])o1 [furazolidone]", "assigned class": "inactive"}
{"molecule": "Cc1ncc(NC(=O)c2ccc(CN3CCN(C)CC3)c(C(F)(F)F)c2)cc1Nc1nccc(-c2cccnc2)n1 [flumatinib]", "assigned class": "active"}
{"molecule": "N#CC(C#N)=Cc1ccc(O)c(O)c1 [tyrphostin-AG-18]", "assigned class": "inactive"}

Next:
Challenge: Short answer needed: outcome of this test for "C[C@H](NC[C@H](O)CP(=O)(O)Cc1ccccc1)c1ccc(Cl)c(Cl)c1" ?
Response given: inactive
